- procedureText: Half life in mouse
- Assay type: ADME, organism-based
- conditionParameters: in vivo
recordedMetric: half-life (h)

- molecule: "CCO[C@H]1CCN(Cc2c(OC)cc(C)c3[nH]ccc23)[C@H](c2ccc(C(=O)O)cc2)C1 [IPTACOPAN]"
  numericResult: 7

----------
- studySystem: Gamma-secretase
pIC50: −log10 of the molar value.
recordedMetric: pIC50

- lineNotation: "C[C@H](NC(=O)Cc1cc(F)cc(F)c1)C(=O)N[C@H](C(=O)OC(C)(C)C)c1ccccc1"
  numericResult: 7.70

----------
- procedureText: in vivo
- conditionParameters: mouse, po
- Description: Oral bioavailability in mouse
recordedMetric: bioavailability

- compound: "CCO[C@H]1CCN(Cc2c(OC)cc(C)c3[nH]ccc23)[C@H](c2ccc(C(=O)O)cc2)C1 [IPTACOPAN]"
  result: "60%"
